Data credit: patent US10464890B2

- study-target: 6PGD (Homo sapiens, UniProt P52209)
- Sequence (P52209 1-483): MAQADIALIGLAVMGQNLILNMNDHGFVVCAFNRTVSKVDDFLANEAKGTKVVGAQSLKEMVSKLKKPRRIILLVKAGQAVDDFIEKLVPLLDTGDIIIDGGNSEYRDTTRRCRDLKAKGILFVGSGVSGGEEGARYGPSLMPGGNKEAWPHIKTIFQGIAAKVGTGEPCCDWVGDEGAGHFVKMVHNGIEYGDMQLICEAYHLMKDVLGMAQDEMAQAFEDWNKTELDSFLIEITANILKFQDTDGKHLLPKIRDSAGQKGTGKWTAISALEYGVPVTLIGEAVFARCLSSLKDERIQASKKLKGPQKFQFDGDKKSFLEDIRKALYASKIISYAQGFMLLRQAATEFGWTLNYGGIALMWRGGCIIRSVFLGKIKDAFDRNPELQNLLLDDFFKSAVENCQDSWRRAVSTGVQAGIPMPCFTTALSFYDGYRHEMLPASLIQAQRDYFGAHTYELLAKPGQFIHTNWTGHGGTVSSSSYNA
- cond: read-out: Kd for interaction with 6PGD

- compound: "O=C(O)[C@H](O)COP(=O)(O)O [3-PG, 3-phosphoglycerate]"
  Kd / µM: 460
